Test system: PC-3
Assay: Antiproliferative activity against prostate cancer PC-3 cell line
Assay type: functional, cell-based, Homo sapiens
Conditions: Homo sapiens, PC-3
pIC50: −log10 of the molar value.
value.type: pIC50

COc1cccc(C(=O)/C=C/c2cc(OC)c(OC)c(OC)c2)c1    4.93
COc1ccc(-c2cc(-c3cc(OC)c(OC)c(OC)c3)[nH]n2)cc1    4.80
COc1cc(-c2nn(C(C)=O)c(-c3ccc4c(c3)OCO4)c2OC(C)=O)cc(OC)c1OC    4.74
COc1ccc(C2NN=C(c3cc(OC)c(OC)c(OC)c3)C2O)cc1 (stereo unspecified)    4.82

I. COc1cc(-c2cc(-c3cc(OC)c(OC)c(OC)c3)[nH]n2)cc(OC)c1OC
II. COc1cc(C(=O)/C=C/c2ccccc2)cc(OC)c1OC
Quick check, higher pIC50 between I and II ? // respond with label for picked entry
I
